B1: BTBD1 (parent)
chain: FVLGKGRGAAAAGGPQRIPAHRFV

Variants of: B1
Assay: protein stability index of a GFP-peptide fusion (GPS, HEK-293T) (PSI 1-6); higher = more stable;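 also: lentivirally expressed fusions sorted by FACS into six bins by GFP to DsRed ratio, PSI derived from sequencing read proportions per bin multiplied by bin number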
Settings: c terminus: a fixed tail appended
MEASURE: protein stability index
Note: the reply should be a number with no unit written.

Check out these entries, answers already filled in.
sequence_chain="FVLGKGRGAAKAGGPQRIPAHRFV [A11K]" measure="protein stability index" readout_number=1.77
sequence_chain="FVLGKGRGAAAAGGPQNIPAHRFV [R17N]" measure="protein stability index" readout_number=1.64
sequence_chain="FVLGKGRGALAAGGPQRIPAHRFV [A10L]" measure="protein stability index" readout_number=1.46
sequence_chain="FVLGKGRGAPAAGGPQRIPAHRFV [A10P]" measure="protein stability index" readout_number=1.95
sequence_chain="FVLGKGRGAAAAGGPQSIPAHRFV [R17S]" measure="protein stability index" readout_number=1.86
sequence_chain="FVLGKGIGAAAAGGPQRIPAHRFV [R7I]" measure="protein stability index" readout_number=2.15
sequence_chain="FFLGKGRGAAAAGGPQRIPAHRFV [V2F]" measure="protein stability index" readout_number=1.67
sequence_chain="FVLGKGRGAAAAGGPQRIPAHRMV [F23M]" measure="protein stability index" readout_number=2.58

*Q* What value of measured protein stability index is listed for FVLIKGRGAAAAGGPQRIPAHRFV [G4I] ?
*A* 1.98

*Q* What value of measured protein stability index is listed for FVLGKGRGAAAAGGPQRIPAHREV [F23E] ?
*A* 2.04

*Q* Using the record for FVLGKGRGAAAAGGMQRIPAHRFV [P15M] , report its protein stability index.
*A* 2.08

*Q* Looking for the measured protein stability index of FVLGKGRGAAAAGGPQRIPAHRRV [F23R] , can you help?
*A* 1.25

*Q* May I ask what protein stability index has been recorded for FVLGKGRGAAAAGGPQRIPAHRSV [F23S] ?
*A* 2.93

*Q* What value of protein stability index has been recorded for this entry: FVCGKGRGAAAAGGPQRIPAHRFV [L3C]
*A* 1.67

*Q* For FVLGDGRGAAAAGGPQRIPAHRFV [K5D] , what is its reported protein stability index?
*A* 1.89

*Q* # query: protein stability index of entry FVLGKSRGAAAAGGPQRIPAHRFV [G6S]
*A* 1.44

*Q* # get_value(readout='protein stability index', item= FVLGKGRGAAHAGGPQRIPAHRFV [A11H] )
*A* 1.96

*Q* Suppose we examine the variant FVLGKGRQAAAAGGPQRIPAHRFV [G8Q] ; what protein stability index value has been reported?
*A* 1.48

*Q* protein stability index for FVLGKGRGAAMAGGPQRIPAHRFV [A11M] ?
*A* 1.73

*Q* Requested read-out: protein stability index. Entry: FVLGKGRGAAAAGGPQRIPAHSFV [R22S]
*A* 1.36

*Q* # input variant: FVLGKGRGAAAAGGPQMIPAHRFV [R17M] ; wanted: its protein stability index
*A* 1.56

*Q* Requested field: protein stability index. Item: FVLGLGRGAAAAGGPQRIPAHRFV [K5L]
*A* 1.59

*Q* Requested read-out: protein stability index. Entry: FVLGKGRGAAAWGGPQRIPAHRFV [A12W]
*A* 2.86
